System: LOX IMVI
EXPERIMENTAL_DETAILS: NCI tumour cell line growth inhibition, 48 h
Activity calls are given as the source filed them. No stated cut-off is given here; in the data, active = GI50 up to about 1.1 µM and inactive = higher.
OBSERVABLE: GI50

Take a look at these entries with their results.
{"COMPOUND": "CCCCOC(=O)NC(c1ccccc1)C(O)C(=O)OC1C[C@@]2(O)C(OC(=O)c3ccccc3)C3[C@](C)(C(=O)[C@H](OC(C)=O)C(=C1C)C2(C)C)[C@@H](O)C[C@H]1OC[C@@]31OC(C)=O (stereo partly drawn)", "GI50": "0.00427 µM (active)"}
{"COMPOUND": "CC(=O)NC1C(OCc2ccccc2)OC(CO)C(O)C1OCC(=O)N1CCCC1C(=O)N[C@@H](CCC(=O)NCCNCCNc1c2ccccc2nc2cccc([N+](=O)[O-])c12)C(N)=O (stereo partly drawn)", "GI50": "4.55 µM (inactive)"}

We now examine a further compound.
Using known records, supply GI50 for CC1=C(C(=O)OCCO[N+](=O)[O-])C(c2ccccc2C(F)(F)F)C(C(=O)OC(C)C)=C(C)N1 (stereo not drawn)
13.9 µM (inactive)
